Values compiled from patent US20240327353A1.

testSystem: H1R (Homo sapiens, UniProt P35367)
Construct: host or cells: CHO, transient
Sequence (P35367 whole entry): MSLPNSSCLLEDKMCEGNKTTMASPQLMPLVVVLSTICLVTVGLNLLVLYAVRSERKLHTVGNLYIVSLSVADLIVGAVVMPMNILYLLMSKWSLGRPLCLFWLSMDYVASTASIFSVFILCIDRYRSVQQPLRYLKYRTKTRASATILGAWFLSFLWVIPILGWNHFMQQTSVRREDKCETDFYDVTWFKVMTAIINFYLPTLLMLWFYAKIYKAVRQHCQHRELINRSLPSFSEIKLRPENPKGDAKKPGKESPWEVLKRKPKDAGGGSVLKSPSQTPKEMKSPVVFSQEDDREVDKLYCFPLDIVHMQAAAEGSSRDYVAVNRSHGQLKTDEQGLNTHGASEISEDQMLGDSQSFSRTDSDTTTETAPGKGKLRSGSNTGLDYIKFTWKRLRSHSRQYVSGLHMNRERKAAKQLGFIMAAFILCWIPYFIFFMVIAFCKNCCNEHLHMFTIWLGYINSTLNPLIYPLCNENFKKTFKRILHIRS
measurementDescription: Radioligand binding (competitive displacement and saturation), cell membranes
experimentalSetup: pKi H1R, displacement of [^3H]mepyramine; mean of n independent experiments, ± SD where n ≥ 5
endpoint: Ki (nM)

>>> quantitativeresult("CN(C)[C@@H]1Cc2ccccc2[C@H](c2cccc(-c3ccncc3)c2)C1 (single isomer, unassigned) [(2R,4R)-3e]")
22.4
>>> quantitativeresult("CN(C)[C@@H]1Cc2ccccc2[C@@H](c2cccc(-c3ccc(Cl)cc3)c2)C1 [(2S,4R)-2j]")
1.45
>>> quantitativeresult("CN(C)[C@@H]1Cc2ccccc2[C@@H](c2cccc(-c3ccco3)c2)C1 (single isomer, unassigned) [(2S,4R)-2d]")
3.39
>>> quantitativeresult("CN(C)C1Cc2ccccc2C(c2cccc(-c3ccc(Cl)cc3)c2)C1 [(2R,4S)-2j]")
14.5
